Assay: Phase 1 single dose study, plasma pharmacokinetics
Type: in vivo, human
Conditions: male, human, plasma, oral; 15 to 150 mg, fasted; Cmax (μg/mL) = a × dose^b; read-out: power model intercept, Cmax
metricName: power model intercept (a) of exposure versus dose (ng/mL)
Give a bare numeral; the unit ng/mL is implied.

Q: Let me know recorded power model intercept (a) of exposure versus dose for [2H]c1c([2H])c([2H])c2c(C(=O)c3cc(Br)c(O)c(Br)c3)c(C(C)O)oc2c1[2H] (racemic) [Compound 1] , thanks.
A: 96.6

* * *

Experiment: Phase 1 single dose study, plasma pharmacokinetics
Assay type: in vivo, human
Details: male, human, plasma, oral; 15 to 150 mg, fasted; AUCinf (μg · h/mL) = a × dose^b; read-out: power model intercept, AUCinf
metricName: power model intercept (a) of exposure versus dose (ng·h/mL)
Give a bare numeral; the unit ng·h/mL is implied.

Q: Let me know recorded power model intercept (a) of exposure versus dose for [2H]c1c([2H])c([2H])c2c(C(=O)c3cc(Br)c(O)c(Br)c3)c(C(C)O)oc2c1[2H] (racemic) [Compound 1] , thanks.
A: 944
